system: SNB-75 CNS; test: NCI-60 one-dose screen, 48 h; settings: 10 µM
Compounds without any hit were thinned out: in the full panel of roughly 83,000, 20% have a hit. Active and inactive are the calls of the source. The calls were made as follows: active = growth percent below 10; inactive = the rest.
Assign a class; possible classes are active, inactive

The examples below pair each entry with its known result.
                            compound  assayed_target  assigned_class
0  Cc1cc(C(C)(C)c2ccc(O)c(C)c2)ccc1O      SNB-75 CNS        inactive
1        O=C1C(=O)c2ccccc2-c2ccccc21      SNB-75 CNS          active
2          O=C1CCC(=O)N1SC(Cl)(Cl)Cl      SNB-75 CNS        inactive

# lookup: test call for C#CC1(O)CCC(C(C)(C)C)CC1 (stereo not given)
inactive

# lookup: test call for "N#CCc1ccccc1"
inactive

# lookup: test call for "C=C1C(=O)O[C@@H]2C[C@@H](C)[C@@H]3C=CC(=O)[C@@]3(C)[C@@H](O)[C@H]12"
active

# lookup: test call for "S=C=NCCc1ccccc1"
inactive

# lookup: test call for "CC(C)(C)OOC(=O)/C=C\C(=O)OOC(C)(C)C"
inactive

# lookup: test call for "CN(C)CC1(N)C(=O)NC(=O)NC1=O"
inactive

* * *

test system: NCI-H522 lung; assay: NCI-60 one-dose screen, 48 h; conditions: 10 µM
The panel holds about 83,000 compounds, 20% with a hit somewhere; the sample as a whole holds those more often. Activity calls are given as the source filed them. The calls were made as follows: active = growth percent below 10; inactive = the rest.
Assign a class; possible classes are active, inactive

In [3]: df
Out[3]:
                                   compound  assigned_class
0         CC/C(=C/c1ccc(OC)cc1)[N+](=O)[O-]          active
1  C[C@]12CC[C@H]3[C@@H](CCC4=CC(=O)CC[C@@H]43)[C@@H]1CC[C@@H]2OC(=O)N(CCCl)N=O        inactive

API: the following record is the query input.
# lookup: test call for COC12C(COC(N)=O)C3=C(C(=O)C(C)=C(N)C3=O)N1CC1C2N1C (stereo not drawn)
inactive

* * *

System: NCI-H322M lung
Assay: NCI-60 one-dose screen, 48 h (100 = growth as untreated, 0 = no growth, -100 = all killed)
Conditions: 10 µM
Description: Growth inhibition of the NCI-H322M human Non-Small Cell Lung tumor cell line is measured as a screen for anti-cancer activity. Cells are grown in 96 well plates and exposed to the test compound for 48 hours. Compounds are tested at a single concentration, which is 10^-5 M for most compounds. The reported endpoint is percent growth (GI% or GIPRCNT), where numbers from 0 - 100% represent growth inhibition, and numbers from -100% - 0 represent cell death. […]
This is part of a sample that, as a whole, favours compounds with a hit. Of some 83,000 tested, about 20% had one in any assay.
Reported metric: growth (%)
Numbers only here, please. The scale is %.

Example entries begin here.
                            chemical_string  units_of_measure  value_observed
0                         O=[P+](O)c1ccccc1                 %             149
1  COc1cc([C@@H]2c3cc4c(c(O)c3C[C@H]3COC(=O)[C@@H]32)OCO4)cc(OC)c1OC                 %            21.9
2  COc1cc([N+](=O)[O-])c2ncccc2c1[N+](=O)[O-]                 %             103
3  NC(=O)c1cc([N+](=O)[O-])c(Cl)c([N+](=O)[O-])c1                 %             109

API: the following record is the query input.
Give recorded growth with NCI-H322M lung for the following compound: "O=[N+]([O-])c1ccc(N(CCO)CCO)c2c1no[n+]2[O-]"
-16

* * *

system: BT-549 breast; experiment: NCI-60 one-dose screen, 48 h (100 = growth as untreated, 0 = no growth, -100 = all killed); settings: 10 µM
About 83,000 compounds went through this panel and 20% of them were active in at least one assay; those are over-represented in the sample as a whole.
Parameter threshold = 90%. Response is yes (1) when growth meets or exceeds it, else no (0).

The examples below pair each entry with its known result.
Molecule	Assigned class
O=C(CBr)Nc1ccccc1	no (0)
COC(=O)C1C(O)C(C)C(O)C(C)/C=C\C=C(C)C(=O)Nc2c(C)c(OC(C)=O)c3c(c2O)C(=O)C(C)=C2OCOC(=C23)C(C)=CC(C)(O)C(O)C(C)C1O (centres undefined)	yes (1)
COc1cc([C@@H]2c3cc4c(c(O)c3C[C@H]3COC(=O)[C@@H]32)OCO4)cc(OC)c1OC	no (0)

API: the following record is the query input.
Check this molecule for growth at or above 90%: COc1ccccc1[As]=[As]c1ccccc1OC (centres undefined)
no (0)

* * *

Some compounds, each annotated with its measured growth.
Test system: SK-MEL-5 melanoma
Assay: NCI-60 one-dose screen, 48 h (100 = growth as untreated, 0 = no growth, -100 = all killed)
Details: 10 µM
Procedure: Growth inhibition of the SK-MEL-5 human tumor cell line is measured as a screen for anti-cancer activity. Cells are grown in 96 well plates and exposed to the test compound for 48 hours. Compounds are tested at a single concentration, which is 10^-5 M for most compounds. The reported endpoint is percent growth (GI% or GIPRCNT), where numbers from 0 - 100% represent growth inhibition, and numbers from -100% - 0 represent cell death. For example, a value of 40 represents 60% growth inhibition. […]
About 83,000 compounds went through this panel and 20% of them were active in at least one assay; those are over-represented in the sample as a whole.
Numbers only here, please. The scale is %.

Example entries begin here.
>>> df
                     chemical_string     assayed_target  units_of_measure  value_observed
0     Oc1c(Cl)cc(Cl)c2ccccc12.[Cu+2]  SK-MEL-5 melanoma                 %            90.5
1  Cc1cc(C(C)(C)c2ccc(O)c(C)c2)ccc1O  SK-MEL-5 melanoma                 %              88

Give recorded growth with SK-MEL-5 melanoma for the following compound: "ClCc1ccc2ccccc2n1"
91

* * *

Some compounds, each annotated with its measured growth.
system: A549/ATCC NSCLC; test: NCI-60 one-dose screen, 48 h (100 = growth as untreated, 0 = no growth, -100 = all killed); conditions: 10 µM
This is part of a sample that, as a whole, favours compounds with a hit. Of some 83,000 tested, about 20% had one in any assay. Calls of active or inactive are those of the source. The calls were made as follows: active = growth percent below 10; inactive = the rest.

Example entries begin here.
Compound	Assayed target	Reported metric	Value observed
O=[N+]([O-])c1ccc(N2CCOCC2)c2c1no[n+]2[O-]	A549/ATCC NSCLC	growth	21.4% (inactive)
NNc1ccccc1	A549/ATCC NSCLC	growth	84.3% (inactive)
COC(C(=O)C(O)C(C)O)C1Cc2cc3cc(OC4CC(OC(C)=O)C(OC5CC(O)C(OC)C(C)O5)C(C)O4)cc(O)c3c(O)c2C(=O)C1OC1CC(OC2CC(OC3CC(C)(O)C(OC(=O)C(C)C)C(C)O3)C(O)C(C)O2)C(O)C(C)O1 (configuration not stated)	A549/ATCC NSCLC	growth	-39.3% (active)
[Cl][Hg][c]1ccc2ccccc2c1	A549/ATCC NSCLC	growth	19.6% (inactive)
N#CCc1ccccc1	A549/ATCC NSCLC	growth	101% (inactive)
CC/C(=C/c1ccc(OC)cc1)[N+](=O)[O-]	A549/ATCC NSCLC	growth	62.3% (inactive)

API: the following record is the query input.
Requested field: growth. Item: "COc1ccccc1/C=C/[N+](=O)[O-]"
75.5% (inactive)

* * *

Some compounds, each annotated with its measured growth.
test system: MOLT-4 leukemia; experiment: NCI-60 one-dose screen, 48 h (100 = growth as untreated, 0 = no growth, -100 = all killed); conditions: 10 µM
This is part of a sample that, as a whole, favours compounds with a hit. Of some 83,000 tested, about 20% had one in any assay.
Numbers only here, please. The scale is %.

Requested field: growth. Item: "Oc1c(I)cc(I)cc1I"
98.9

Requested field: growth. Item: "C/C1=C\[C@H](C)C[C@H](C)OC(=O)C[C@H](c2ccc(O)cc2)NC(=O)[C@@H](Cc2c(Br)[nH]c3ccccc23)N(C)C(=O)[C@H](C)NC(=O)[C@@H](C)C1"
2.89

Requested field: growth. Item: C#CC1(O)CCC(C(C)(C)C)CC1 (centres undefined)
114

Requested field: growth. Item: "COc1ccccc1/C=C/[N+](=O)[O-]"
53.3

Requested field: growth. Item: "NC(=O)c1cc([N+](=O)[O-])c(Cl)c([N+](=O)[O-])c1"
-13.3
